- SYSTEM: PKCθ (Homo sapiens, UniProt Q04759)
- Construct: purchased Invitrogen P2996
- Sequence (Q04759 whole entry): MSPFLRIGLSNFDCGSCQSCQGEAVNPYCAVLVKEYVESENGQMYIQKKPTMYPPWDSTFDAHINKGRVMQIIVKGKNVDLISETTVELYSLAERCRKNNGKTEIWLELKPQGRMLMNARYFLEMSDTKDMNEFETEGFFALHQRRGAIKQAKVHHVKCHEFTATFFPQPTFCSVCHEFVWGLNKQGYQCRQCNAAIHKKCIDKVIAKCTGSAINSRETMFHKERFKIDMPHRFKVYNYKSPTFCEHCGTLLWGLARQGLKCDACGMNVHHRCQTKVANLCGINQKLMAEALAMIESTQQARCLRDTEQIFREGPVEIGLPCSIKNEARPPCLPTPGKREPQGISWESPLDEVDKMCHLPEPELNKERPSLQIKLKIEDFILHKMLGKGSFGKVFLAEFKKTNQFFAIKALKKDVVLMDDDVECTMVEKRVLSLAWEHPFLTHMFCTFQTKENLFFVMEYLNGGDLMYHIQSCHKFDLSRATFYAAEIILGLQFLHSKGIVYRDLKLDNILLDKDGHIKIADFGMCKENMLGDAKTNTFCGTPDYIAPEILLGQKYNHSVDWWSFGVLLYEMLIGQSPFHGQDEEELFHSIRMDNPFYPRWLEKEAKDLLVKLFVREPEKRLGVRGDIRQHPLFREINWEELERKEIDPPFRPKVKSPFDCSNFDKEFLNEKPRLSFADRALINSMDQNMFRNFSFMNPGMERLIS
- PROCEDURE_DETAILS: Inhibition of novel PKCθ (Example 4)
- Type: biochemical
- ASSAY_SETUP: n = 3
PROPERTY: Ki

Which Ki is reported with PKCθ (Homo sapiens, UniProt Q04759) for this entry: CC(C)(C(=O)NCC(N)[C@H]1CC[C@H](C(=O)Nc2ccncc2)CC1)c1ccc(Cl)cc1.Cl (some centres unmarked) ?
67 nM

Which Ki is reported with PKCθ (Homo sapiens, UniProt Q04759) for this entry: Cl.NC(CNC(=O)C1(c2ccc(F)cc2)CCCC1)[C@H]1CC[C@H](C(=O)Nc2ccncc2)CC1 (some centres unmarked) ?
86.9 nM

* * *

- SYSTEM: UniProt Q02156
- Sequence (Q02156 1-737): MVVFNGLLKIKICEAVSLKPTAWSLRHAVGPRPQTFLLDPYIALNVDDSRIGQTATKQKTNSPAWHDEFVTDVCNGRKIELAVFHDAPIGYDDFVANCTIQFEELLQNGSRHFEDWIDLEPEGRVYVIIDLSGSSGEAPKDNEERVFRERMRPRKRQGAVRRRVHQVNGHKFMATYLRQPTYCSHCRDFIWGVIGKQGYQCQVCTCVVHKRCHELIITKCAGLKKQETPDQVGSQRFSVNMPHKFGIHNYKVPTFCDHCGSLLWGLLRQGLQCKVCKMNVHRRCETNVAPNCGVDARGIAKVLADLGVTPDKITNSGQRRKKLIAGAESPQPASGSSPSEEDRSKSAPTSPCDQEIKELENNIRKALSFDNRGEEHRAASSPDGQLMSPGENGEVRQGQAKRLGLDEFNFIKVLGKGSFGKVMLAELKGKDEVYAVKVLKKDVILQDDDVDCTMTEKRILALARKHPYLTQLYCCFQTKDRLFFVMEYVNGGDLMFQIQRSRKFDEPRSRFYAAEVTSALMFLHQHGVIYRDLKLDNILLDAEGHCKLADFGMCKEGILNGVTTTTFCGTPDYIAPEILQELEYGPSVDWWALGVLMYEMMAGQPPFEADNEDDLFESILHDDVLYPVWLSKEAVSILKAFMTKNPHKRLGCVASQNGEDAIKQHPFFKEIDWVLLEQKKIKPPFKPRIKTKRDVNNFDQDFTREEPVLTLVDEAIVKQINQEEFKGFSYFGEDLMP
- PROCEDURE_DETAILS: Primary PKCε phosphotransferase assay
- Assay type: biochemical
- Design: FLAG; made in house; host or cells: COS-7
PROPERTY: IC50 (µM)
Express your answer in µM, writing the number without its unit.

Which IC50 value belongs to NC(CC(=O)NCC1(c2ccc(Cl)cc2)CC1)[C@H]1CC[C@H](C(=O)Nc2ccncc2)CC1 (relative stereo) [Compound 2] ?
1.69

* * *

- SYSTEM: PKCε (Homo sapiens, UniProt Q02156)
- Sequence (Q02156 1-737): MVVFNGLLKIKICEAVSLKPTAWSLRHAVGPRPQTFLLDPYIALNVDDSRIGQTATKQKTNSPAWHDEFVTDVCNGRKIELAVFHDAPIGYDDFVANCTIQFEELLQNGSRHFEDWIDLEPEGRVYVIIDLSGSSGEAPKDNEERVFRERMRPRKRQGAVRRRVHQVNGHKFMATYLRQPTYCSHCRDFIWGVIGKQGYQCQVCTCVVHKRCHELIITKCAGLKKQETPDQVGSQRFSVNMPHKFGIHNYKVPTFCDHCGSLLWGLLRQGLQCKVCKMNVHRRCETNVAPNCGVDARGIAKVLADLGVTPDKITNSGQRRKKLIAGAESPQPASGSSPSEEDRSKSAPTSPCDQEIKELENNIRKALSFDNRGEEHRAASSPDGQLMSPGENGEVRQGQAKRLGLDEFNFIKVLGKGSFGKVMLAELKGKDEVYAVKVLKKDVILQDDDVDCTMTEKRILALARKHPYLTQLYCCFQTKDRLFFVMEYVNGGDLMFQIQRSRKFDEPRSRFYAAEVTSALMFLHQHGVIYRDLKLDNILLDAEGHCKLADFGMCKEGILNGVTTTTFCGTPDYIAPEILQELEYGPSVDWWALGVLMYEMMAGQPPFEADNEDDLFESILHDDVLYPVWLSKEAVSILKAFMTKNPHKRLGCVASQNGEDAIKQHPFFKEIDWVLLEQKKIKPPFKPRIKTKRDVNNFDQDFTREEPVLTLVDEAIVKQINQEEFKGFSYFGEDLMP
- PROCEDURE_DETAILS: Inhibition of PKCε (Example 4)
- Type: biochemical
- ASSAY_SETUP: selection criterion for Example 4; read-out: Ki for PKCε
pKi: −log10 of the molar value.
PROPERTY: pKi

Which pKi is reported with PKCε (Homo sapiens, UniProt Q02156) for this entry: Cl.NC(CNC(=O)C1(c2ccc(F)cc2)CCCC1)[C@H]1CC[C@H](C(=O)Nc2ccncc2)CC1 (some centres unmarked) [Compound 5] ?
> 7.70

Which pKi is reported with PKCε (Homo sapiens, UniProt Q02156) for this entry: CC(C)(C(=O)NCC(N)[C@H]1CC[C@H](C(=O)Nc2ccncc2)CC1)c1ccc(Cl)cc1.Cl (some centres unmarked) [Compound 9] ?
> 7.70
